# maps each entry to its IC90
Tested on: RPMI8226 (multiple myeloma)
Experiment: MTT growth inhibition of multiple myeloma cells, 72 h
Type: cell-based, human
Conditions: Homo sapiens; RPMI 8226, 72 h; read-out: IC90
Numeric only. Scale: µg/mL

// below: answered compounds
Cc1c(CN(C)CCOC(=O)[C@@H](N)C(C)C)oc2c1C(=O)C(=O)c1c-2ccc2c(C)cccc12    0.83
Cc1c(CN2CCCN(C)CC2)oc2c1C(=O)C(=O)c1c-2ccc2c(C)cccc12    7.13

As a next step, examine the compound that follows.
Query :: Query: IC90; subject: "Cc1c(CN(C)CCOC(=O)C(C)(C)C)oc2c1C(=O)C(=O)c1c-2ccc2c(C)cccc12"
Result :: 7.68

* * *

# maps each entry to its IC90
Test system: Hep-2 (laryngeal carcinoma)
Experiment: MTT growth inhibition of human solid tumor cells, 72 h
Format: cell-based
Conditions: Homo sapiens, HEp-2, 72 h; read-out: IC90

// below: answered compounds
Cc1c(CN(C)CCOC(=O)C2CCNCC2)oc2c1C(=O)C(=O)c1c-2ccc2c(C)cccc12    3.65 µg/mL
CC[N+](C)(Cc1ccc(F)c(Cl)c1)Cc1oc2c(c1C)C(=O)C(=O)c1c-2ccc2c(C)cccc12 (stereo not drawn)    > 16 µg/mL
Cc1c(CN(C)CCOC(=O)C(C)(C)C)oc2c1C(=O)C(=O)c1c-2ccc2c(C)cccc12    > 16 µg/mL
Cc1c(CNCC2CCCCC2)oc2c1C(=O)C(=O)c1c-2ccc2c(C)cccc12    > 16 µg/mL
Cc1c(CN(C)CCOC(=O)OC(C)C)oc2c1C(=O)C(=O)c1c-2ccc2c(C)cccc12    22.4 µg/mL

Query :: # returns recorded IC90 (system: Hep-2 (laryngeal carcinoma)) for "Cc1c(CNCCO)oc2c1C(=O)C(=O)c1c-2ccc2c(C)cccc12"
Result :: 2.38 µg/mL

* * *

Tested on: Hela (human cervical cancer cell)
Experiment: MTT growth inhibition of human solid tumor cells, 72 h
Format: cell-based
Conditions: Homo sapiens, HeLa, 72 h; read-out: IC90
Lab note: anything with IC90 below 4 µg/mL is marked 1; values at 4 µg/mL or higher are marked -1.

Worked examples, 10 molecules total:
Cc1c(CN(C)CCOC(=O)CCC(=O)O)oc2c1C(=O)C(=O)c1c-2ccc2c(C)cccc12    1
COC(=O)/C=C/C(=O)OCCN(C)Cc1oc2c(c1C)C(=O)C(=O)c1c-2ccc2c(C)cccc12    1
Cc1c(CNCC2CCCCC2)oc2c1C(=O)C(=O)c1c-2ccc2c(C)cccc12    -1
Cc1c(CNCCC(C)(C)C)oc2c1C(=O)C(=O)c1c-2ccc2c(C)cccc12    -1
C#CCNCc1oc2c(c1C)C(=O)C(=O)c1c-2ccc2c(C)cccc12    -1
Cc1c(CNCCO)oc2c1C(=O)C(=O)c1c-2ccc2c(C)cccc12    1
Cc1c(CN(C)CCOC(=O)OC(C)C)oc2c1C(=O)C(=O)c1c-2ccc2c(C)cccc12    -1
CCC(=O)OCc1oc2c(c1C)C(=O)C(=O)c1c-2ccc2c(C)cccc12    -1
Cc1c(CN(C)CCOC(=O)[C@@H](N)C(C)C)oc2c1C(=O)C(=O)c1c-2ccc2c(C)cccc12    1
CC[N+](C)(Cc1ccc(F)c(Cl)c1)Cc1oc2c(c1C)C(=O)C(=O)c1c-2ccc2c(C)cccc12 (stereo not shown)    -1

Field: next molecule
Query :: For this molecule, is IC90 lower than 4 µg/mL? "Cc1c(CN(C)Cc2ccccc2)oc2c1C(=O)C(=O)c1c-2ccc2c(C)cccc12"
Result :: -1

* * *

System: RPMI8226 (multiple myeloma)
Experiment: MTT growth inhibition of multiple myeloma cells, 72 h
Assay type: cell-based, human
Conditions: Homo sapiens; RPMI 8226, 72 h; read-out: IC90
PROPERTY: IC90 (µg/mL)
Numeric only. Scale: µg/mL

Cc1c(CN(C)CCOC(=O)CCC(=O)O)oc2c1C(=O)C(=O)c1c-2ccc2c(C)cccc12 [BS-TA-73]    1.55

Query :: Query: IC90; subject: Cc1c(CN(C)CCOC(=O)OC(C)C)oc2c1C(=O)C(=O)c1c-2ccc2c(C)cccc12 [BS-TA-63]
Result :: 16

Query :: Query: IC90; subject: CC(=O)OCCN(C)Cc1oc2c(c1C)C(=O)C(=O)c1c-2ccc2c(C)cccc12 [BS-TA-61]
Result :: 3.92

Query :: Query: IC90; subject: C#CCNCc1oc2c(c1C)C(=O)C(=O)c1c-2ccc2c(C)cccc12 [BS-TA-B21]
Result :: 10.5

Query :: Query: IC90; subject: Cc1c(CN(C)Cc2ccccc2)oc2c1C(=O)C(=O)c1c-2ccc2c(C)cccc12 [BS-TA-B01]
Result :: 2.9

Query :: Query: IC90; subject: Cc1c(CNCCO)oc2c1C(=O)C(=O)c1c-2ccc2c(C)cccc12 [BS-TA-65]
Result :: 0.25

Query :: Query: IC90; subject: COC(=O)/C=C/C(=O)OCCN(C)Cc1oc2c(c1C)C(=O)C(=O)c1c-2ccc2c(C)cccc12 [BS-TA-74]
Result :: 1.78

Query :: Query: IC90; subject: Cc1c(C[N+](C)(CCO)Cc2ccc(F)c(Cl)c2)oc2c1C(=O)C(=O)c1c-2ccc2c(C)cccc12 (centres unmarked) [BS-TA-60]
Result :: 7.64

* * *

System: NB4 (acute promyelocytic leukemia, AML)
Assay: MTT growth inhibition of leukemia cells, 72 h
Type: cell-based, human
Conditions: Homo sapiens; NB4, 72 h; read-out: IC50
Excerpt: Leukemia cell lines: leukemia cell lines: K562/adr (drug-resistant, chronic myeloid leukemia, CML), NB4 (acute promyelocytic leukemia, AML), Kasumi-1 (acute myeloid leukemia M2 type, AML-M2), and Jurkat (acute lymphoblastic leukemia, ALL), all of which are donated by Cancer Research Institute of Zhejiang University, China; and H9 (acute lymphoblastic leukemia, ALL), which is purchased from China Center for Type Culture Collection (CCTCC). […]
# maps each entry to its IC50

CC[N+](C)(Cc1ccc(F)c(Cl)c1)Cc1oc2c(c1C)C(=O)C(=O)c1c-2ccc2c(C)cccc12 (stereo not drawn) [BS-TA-50]    0.99 mg/L
CCC(=O)OCc1oc2c(c1C)C(=O)C(=O)c1c-2ccc2c(C)cccc12 [BS-TA-A03]    1.93 mg/L
Cc1c(CN(C)CCO)oc2c1C(=O)C(=O)c1c-2ccc2c(C)cccc12 [BS-TA-B17]    0.14 mg/L
Cc1c(CN(C)Cc2ccccc2)oc2c1C(=O)C(=O)c1c-2ccc2c(C)cccc12 [BS-TA-B01]    0.26 mg/L
Cc1c(CN(C)CCOC(=O)C2CCNCC2)oc2c1C(=O)C(=O)c1c-2ccc2c(C)cccc12 [BS-TA-64]    0.25 mg/L

Query :: Query: IC50; subject: Cc1c(CNCCC(C)(C)C)oc2c1C(=O)C(=O)c1c-2ccc2c(C)cccc12 [BS-TA-B14]
Result :: 3.59 mg/L

Query :: Query: IC50; subject: Cc1c(COC(=O)c2ccnc(Cl)c2)oc2c1C(=O)C(=O)c1c-2ccc2c(C)cccc12 [BS-TA-A01]
Result :: 0.99 mg/L

Query :: Query: IC50; subject: CC(=O)OCCN(C)Cc1oc2c(c1C)C(=O)C(=O)c1c-2ccc2c(C)cccc12 [BS-TA-61]
Result :: 0.73 mg/L

Query :: Query: IC50; subject: Cc1c(CN(C)CCOC(=O)[C@@H](N)C(C)C)oc2c1C(=O)C(=O)c1c-2ccc2c(C)cccc12 [BS-TA-71]
Result :: 0.15 mg/L

Query :: Query: IC50; subject: Cc1c(CN(C)CCOC(=O)CNC(=O)OC(C)(C)C)oc2c1C(=O)C(=O)c1c-2ccc2c(C)cccc12 [BS-TA-72]
Result :: 0.35 mg/L

* * *

Test system: K562/adr (drug-resistant, chronic myeloid leukemia, CML)
Assay: MTT growth inhibition of leukemia cells, 72 h
Format: cell-based, human
Conditions: Homo sapiens, K562/Adr, read-out: IC50
PROPERTY: IC50 (mg/L)
Numeric only. Scale: mg/L

// below: answered compounds
Cc1c(CN(C)CCOC(=O)CCC(=O)O)oc2c1C(=O)C(=O)c1c-2ccc2c(C)cccc12    1.38
Cc1c(CN(C)CCO)oc2c1C(=O)C(=O)c1c-2ccc2c(C)cccc12    0.31

Query :: Query: IC50; subject: "Cc1c(CN(C)CCOC(=O)C(C)(C)C)oc2c1C(=O)C(=O)c1c-2ccc2c(C)cccc12"
Result :: 0.78

Query :: Query: IC50; subject: "CCCCNCc1oc2c(c1C)C(=O)C(=O)c1c-2ccc2c(C)cccc12"
Result :: 0.76

Query :: Query: IC50; subject: "Cc1c(COC(=O)c2ccnc(Cl)c2)oc2c1C(=O)C(=O)c1c-2ccc2c(C)cccc12"
Result :: 2.33
